Assayed target: BTK recombinant protein (Homo sapiens (Human), UniProt Q06187)
Sequence (Q06187 whole entry): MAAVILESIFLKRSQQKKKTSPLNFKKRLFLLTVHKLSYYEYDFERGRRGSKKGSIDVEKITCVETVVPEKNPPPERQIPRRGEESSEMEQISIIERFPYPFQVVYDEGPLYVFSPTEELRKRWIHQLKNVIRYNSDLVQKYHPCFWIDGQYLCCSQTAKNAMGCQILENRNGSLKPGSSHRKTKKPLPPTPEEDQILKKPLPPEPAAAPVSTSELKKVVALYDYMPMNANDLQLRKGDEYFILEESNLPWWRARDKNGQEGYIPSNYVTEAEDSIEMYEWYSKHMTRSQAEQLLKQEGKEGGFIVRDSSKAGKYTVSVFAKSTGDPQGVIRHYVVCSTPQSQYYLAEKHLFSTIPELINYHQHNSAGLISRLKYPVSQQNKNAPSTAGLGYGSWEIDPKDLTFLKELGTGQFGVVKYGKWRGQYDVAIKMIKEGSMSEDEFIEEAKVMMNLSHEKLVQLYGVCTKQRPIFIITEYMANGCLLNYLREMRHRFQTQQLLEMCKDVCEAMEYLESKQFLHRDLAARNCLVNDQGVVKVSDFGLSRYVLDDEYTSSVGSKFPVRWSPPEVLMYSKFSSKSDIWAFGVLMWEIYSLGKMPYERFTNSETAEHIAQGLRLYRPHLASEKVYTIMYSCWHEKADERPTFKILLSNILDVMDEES
Protocol details: Determination of biochemical BTK (Z'-LYTE kinase assay)
Please use True for IC50 under 10 nM and False for everything else, ties included.

1. [2H]C([2H])([2H])n1cc(-c2ccnc(-n3ccn4c5c(cc4c3=O)CC(C)(C)C5)c2CO)cc(Nc2ccc(N3CCN(C4COC4)C[C@@H]3C)cn2)c1=O [Compound 39]; False
2. Cn1nc(-c2ccnc(-n3ccn4c5c(cc4c3=O)CC(C)(C)C5)c2CO)cc(Nc2cn(CC(F)(F)F)nn2)c1=O; False
3. CC(C)n1cc(Nc2cc(-c3ccnc(-n4ccn5c6c(cc5c4=O)CC(C)(C)C6)c3CO)cn(C)c2=O)nn1; True
4. COCCN1CCn2nc(Nc3cc(-c4ccnc(-n5ncn6c7c(cc6c5=O)CC(C)(C)C7)c4CO)cn(C)c3=O)cc2C1C (racemic); True
5. C[C@@H]1CN(c2ccc(Nc3cc(-c4ccnc(-n5ncn6c7c(c(F)c6c5=O)CCCC7)c4CO)cn(C)c3=O)nc2)[C@@H](C)CN1C1COC1; True
6. Cc1nn(-c2nccc(-c3cc(Nc4cc5n(n4)CCN(C4COC4)C5)c(=O)n(C)c3)c2CO)c(=O)c2cc3c(n12)CC(C)(C)C3; False
7. CC1Cc2cc3c(=O)n(-c4nccc(-c5cc(Nc6ccc(N7CCN(C8COC8)C[C@@H]7C)cn6)c(=O)n(C)c5)c4CO)ccn3c2C1 (mixture of isomers); True
8. C[C@@H]1CN(c2ccc(Nc3cc(-c4ccnc(-n5ccn6c7c(cc6c5=O)CCC7)c4CO)cn(C)c3=O)nc2)[C@@H](C)CN1C1COC1; True
9. Cc1nn(-c2nccc(-c3cc(Nc4ccc(N5CCN(C6COC6)C[C@@H]5C)cn4)c(=O)n(C)c3)c2CO)c(=O)c2cc3c(n12)CCCC3; False
10. C[C@@H]1CN(c2ccc(Nc3cc(-c4ccnc(-n5ccn6c7c(c(F)c6c5=O)CCCC7)c4CO)cn(C)c3=O)nc2)[C@@H](C)CN1C1COC1; True
11. C[C@H]1CN(C2COC2)CCN1c1ccc(Nc2cc(-c3ccnc(-n4ncn5c6c(cc5c4=O)CCCCC6)c3CO)cn(C)c2=O)nc1; False
12. COCCN1CCN(c2ccc(Nc3cc(-c4ccnc(-n5ccn6c7c(cc6c5=O)CC(C)(C)C7)c4CO)cn(C)c3=O)nc2)C(C)(C)C1; False
13. COCC(C)N1CCN(c2ccc(Nc3cc(-c4ccnc(-n5ncn6c7c(cc6c5=O)CC(C)(C)C7)c4CO)cn(C)c3=O)nc2)[C@@H](C)C1 (mixture of isomers); True
14. COCCN1CCn2nc(Nc3cc(-c4ccnc(-n5ccn6c7c(cc6c5=O)CC(C)(C)C7)c4CO)cn(C)c3=O)cc2[C@H]1C; True
15. C[C@H]1CN(C2COC2)C(=O)N1c1ccc(Nc2cc(-c3ccnc(-n4ccn5c6c(cc5c4=O)CC(C)(C)C6)c3CO)cn(C)c2=O)nc1; False
16. [2H]C(O)c1c(-c2cc(Nc3ccc(N4CCN(C5COC5)C[C@@H]4C)cn3)c(=O)n(C)c2)ccnc1-n1ccn2c3c(cc2c1=O)CC(C)(C)C3 (some centres unmarked); True
17. [2H]C(O)c1c(-c2cc(Nc3ccc(N4CCN(C5([2H])COC5)C[C@@H]4C)cn3)c(=O)n(C)c2)ccnc1-n1ccn2c3c(cc2c1=O)CC(C)(C)C3 (mixture of isomers); True
18. CCn1cc(-c2ccnc(-n3ccn4c5c(cc4c3=O)CC(C)(C)C5)c2CO)cc(Nc2ccc(N3CCOC[C@@H]3C)nn2)c1=O; False
19. C[C@@H]1CN(c2ccc(Nc3cc(-c4ccnc(-n5ncn6c7c(cc6c5=O)CC(C)(C)C7)c4CO)cn(C)c3=O)nn2)[C@@H](C)CN1C1COC1; False
20. C[C@H]1CN(C2COC2)CCN1c1ccc(Nc2cc(-c3ccnc(-n4ccn5c(c(F)c6cc(F)ccc65)c4=O)c3CO)cn(C)c2=O)nc1; True
21. Cn1cc(-c2ccnc(-n3ccn4c5c(cc4c3=O)CC(C)(C)C5)c2CO)cc(Nc2ccc(C3=CCN(C4COC4)CC3)cn2)c1=O; False
22. Cn1cc(-c2ccnc(-n3ccn4c5c(cc4c3=O)CC(C)(C)C5)c2CO)cc(Nc2ccc(NC3CCCOC3)cn2)c1=O (centres unmarked); False
23. C[C@H]1CN(C2COC2)CCN1c1ccc(Nc2cc(-c3ccnc(-n4ccn5c6c(cc5c4=O)CC(C)(C)C6)c3CF)cn(C)c2=O)nc1; False
